- Test system: HIV-1 resistant mutant K103N/Y181C in C8166 LTRluc cells
- protocol text: C8166 HIV-1 luciferase assay (EC50), resistant mutant
- Type: cell-based
- conditions used: Human immunodeficiency virus 1, C8166, read-out: EC50 K103N/Y181C
pEC50: −log10 of the molar value.
measurement label: pEC50

Problem: Quick one: pEC50 of CC(C)(C)c1ccc(-n2nnnc2SCC(=O)Nc2ccc(S(C)(=O)=O)cc2Cl)c(Cl)c1 [Entry 603] ?
Solution: > 7.30

Problem: // same read-out, input: Cc1cc(C)c(-n2nnnc2SCC(=O)Nc2ccccc2[N+](=O)[O-])c(Br)c1 [Entry 147]
Solution: 7.00 to 7.30

Problem: Also check Cc1ccc(-n2c(C)nnc2SCC(=O)Nc2ccc(-c3ccccc3)cc2Cl)c(Cl)c1 [Entry 428]
Solution: < 7.00

Problem: And Cc1ccc(-n2nnnc2SCC(=O)Nc2ccc(C(=O)O)cc2Br)c(Cl)c1 [Entry 505] ?
Solution: < 7.00

Data credit: patent US7642277B2
